# Tested on: C. albicans ptr2Δ ptr22Δ
# Assay type: cell-based, Candida albicans
# TEST CONDITIONS: RPMI-1640 medium, MOPS pH 7.0, CLSI conditions, turbidity 531 nm, at least 80% decrease
Where a SMILES comes first, the peptide text is derived from it. [ ]: non-standard residue; d: D form. The star is where a group is joined. Fumaryl(OMe) = COC(=O)/C=C/C(=O)*; Dap = NC[C@H](N)C(=O)O
Kindly state MIC for each of the entries shown.

Any idea what its MIC is? The compound is CC(C)[C@H](NC(=O)[C@H](Cc1c[nH]c2ccccc12)NC(=O)[C@H](Cc1ccccc1)NC(=O)[C@@H](NC(=O)[C@@H](NC(=O)[C@H](CCCCN)NC(=O)[C@@H](N)CCCCN)C(C)C)C(C)C)C(=O)N[C@@H](CCCCN)C(=O)N[C@@H](Cc1ccccc1)C(=O)N[C@@H](CCCCN)C(=O)O [Peptide P10, Lys-Lys-Val-Val-Phe-Trp-Val-Lys-Phe-Lys] (H-KKVVFWVKFK-OH)
64 µg/mL

Let us now turn to COC(=O)/C=C/C(=O)NC[C@H](N)C(=O)N[C@@H](CCCNC(=N)N)C(=O)N[C@@H](CCCCN)C(=O)N[C@@H](CCCCN)C(=O)N[C@@H](Cc1c[nH]c2ccccc12)C(=O)N[C@@H](Cc1ccccc1)C(=O)N[C@@H](Cc1c[nH]c2ccccc12)C(=O)O [Peptide F7, FMDP-Arg-Lys-Lys-Trp-Phe-Trp] (H-[Dap](Fumaryl(OMe))RKKWFW-OH; N-terminus and C-terminus assumed)
>128 µg/mL

Let us now turn to COC(=O)/C=C/C(=O)NC[C@H](N)C(=O)N[C@@H](CCCCN)C(=O)N[C@@H](CCCCN)C(=O)N[C@H](C(=O)N[C@H](C(=O)N[C@@H](Cc1ccccc1)C(=O)N[C@@H](Cc1c[nH]c2ccccc12)C(=O)N[C@H](C(=O)N[C@@H](CCCCN)C(=O)N[C@@H](Cc1ccccc1)C(=O)N[C@@H](CCCCN)C(=O)O)C(C)C)C(C)C)C(C)C [Peptide F11] (H-[Dap](Fumaryl(OMe))KKVVFWVKFK-OH; N-terminus assumed)
>128 µg/mL

Let us now turn to COC(=O)/C=C/C(=O)NC[C@H](NC(=O)[C@H](CCSC)NC(=O)[C@@H](NC(=O)[C@@H]1CCCN1C(=O)[C@H](CC(C)C)NC(=O)[C@@H](N)CCCCN)C(C)C)C(=O)O [Peptide F6, Lys-Leu-Pro-Val-Met-FMDP] (H-KLPVM[Dap](Fumaryl(OMe))-OH; N-terminus and C-terminus assumed)
>128 µg/mL

---

# Tested on: C. albicans opt1–opt5Δ ptr2Δ ptr22Δ
# Type: cell-based, Candida albicans
# TEST CONDITIONS: RPMI-1640 medium, MOPS pH 7.0, CLSI conditions, turbidity 531 nm, at least 80% decrease
Where a SMILES comes first, the peptide text is derived from it. [ ]: non-standard residue; d: D form. The star is where a group is joined. Fumaryl(OMe) = COC(=O)/C=C/C(=O)*; Dap = NC[C@H](N)C(=O)O
READOUT LABEL: MIC

Any idea what its MIC is? The compound is COC(=O)/C=C/C(=O)NC[C@H](N)C(=O)N[C@@H](CCCCN)C(=O)N[C@@H](CCCCN)C(=O)N[C@H](C(=O)N[C@H](C(=O)N[C@@H](Cc1ccccc1)C(=O)N[C@@H](Cc1c[nH]c2ccccc12)C(=O)N[C@H](C(=O)N[C@@H](CCCCN)C(=O)N[C@@H](Cc1ccccc1)C(=O)N[C@@H](CCCCN)C(=O)O)C(C)C)C(C)C)C(C)C [Peptide F11] (H-[Dap](Fumaryl(OMe))KKVVFWVKFK-OH; N-terminus assumed)
>128 µg/mL

Let us now turn to COC(=O)/C=C/C(=O)NC[C@H](NC(=O)[C@H](CCSC)NC(=O)[C@@H](NC(=O)[C@@H]1CCCN1C(=O)[C@H](CC(C)C)NC(=O)[C@@H](N)CCCCN)C(C)C)C(=O)O [Peptide F6, Lys-Leu-Pro-Val-Met-FMDP] (H-KLPVM[Dap](Fumaryl(OMe))-OH; N-terminus and C-terminus assumed)
>128 µg/mL

Let us now turn to COC(=O)/C=C/C(=O)NC[C@H](N)C(=O)N[C@@H](CCCNC(=N)N)C(=O)N[C@@H](CCCCN)C(=O)N[C@@H](CCCCN)C(=O)N[C@@H](Cc1c[nH]c2ccccc12)C(=O)N[C@@H](Cc1ccccc1)C(=O)N[C@@H](Cc1c[nH]c2ccccc12)C(=O)O [Peptide F7, FMDP-Arg-Lys-Lys-Trp-Phe-Trp] (H-[Dap](Fumaryl(OMe))RKKWFW-OH; N-terminus and C-terminus assumed)
>128 µg/mL
